Values from PubChem BioAssay (NCI)

# Tested on: RPMI-8226 leukemia
# assay_notes: NCI tumour cell line growth inhibition, 48 h; in the data active = GI50 below about 0.43 µM; inactive = the rest
Outcome (select one): class 1 (active), class 0 (inactive)

Below, 6 compounds whose answers are already recorded.
| compound | assigned_label |
| --- | --- |
| C=C1C(=O)O[C@H]2[C@H]1CC/C(COC(=O)/C=C/c1cccnc1)=C\CC[C@@]1(C)O[C@@H]21 | class 0 |
| CCOC(=O)Oc1c(OC)cc(C(=O)c2ccc(OC)c(OC(=O)CCl)c2OC)cc1OC | class 0 |
| O=C1c2cccnc2-c2nc(-c3ccccn3)cc3c2c1nc1ccccc13 | class 1 |
| N.N.NCCCCN.O=C([O-])CC(=O)[O-].O=C([O-])CC(=O)[O-].[Pt+4].[Pt+4] | class 0 |
| O=C(Nc1cccc(NS(=O)(=O)c2ccc(F)cc2)c1)c1ccc(-c2ccccc2)cc1 | class 0 |
| O=P(Oc1ccccc1)(Oc1ccccc1)C(O)c1ccccc1 (centres undefined) | class 0 |

So what was the verdict on `Cc1ccc2c(/C=C/C(=O)c3cc(CN4CCOCC4)c(O)c4nc(C)ccc34)cc(CN3CCOCC3)c(O)c2n1` in this test?
class 0

Query: recorded result category for `COc1cc(-c2cc(C(=O)Nc3nc4ccccc4s3)nc3cc(-c4ccccc4)nn23)cc(OC)c1OC` in this test
class 0

Check the results log: what was the call for `O=C(CSc1nc2ccc([N+](=O)[O-])cc2[nH]1)Nc1cccc(C(F)(F)F)c1` ?
class 0
